Items are presented alongside their recorded Ki.
study target: Kappa-type opioid receptor (Homo sapiens)
Sequence (P41145 whole entry): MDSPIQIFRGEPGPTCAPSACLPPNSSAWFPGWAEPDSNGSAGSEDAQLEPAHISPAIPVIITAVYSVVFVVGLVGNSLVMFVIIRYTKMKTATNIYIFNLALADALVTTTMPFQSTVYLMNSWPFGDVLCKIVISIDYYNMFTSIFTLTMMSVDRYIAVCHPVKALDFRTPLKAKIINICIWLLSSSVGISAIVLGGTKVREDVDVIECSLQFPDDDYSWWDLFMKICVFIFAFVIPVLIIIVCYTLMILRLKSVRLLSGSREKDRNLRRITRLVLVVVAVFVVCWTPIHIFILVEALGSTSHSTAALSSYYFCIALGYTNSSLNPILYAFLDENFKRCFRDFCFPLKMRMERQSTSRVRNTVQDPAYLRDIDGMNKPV
measurement name: Ki (nM)

1. Oc1cccc(CCN(CCc2ccccc2)CCc2ccccc2)c1	211
2. Oc1ccc(CCN(CCc2ccccc2)CC2CCC2)cc1	36.3
3. Oc1ccc(CCN(CCc2ccccc2)CC2CC2)cc1	218
